Hello, the source for this data is patent US5428041A, in case you need it.

Target: Acyl-CoA: Cholesterol Acyltransferase (ACAT) (Rattus norvegicus, UniProt Q7TQM4)
Construct: centrifuged at 105,000×g for 1 hour to pellet the microsomes; from tissue; host or cells: liver microsomes of fasted male Sprague Dawley rats
Sequence (Q7TQM4 whole entry): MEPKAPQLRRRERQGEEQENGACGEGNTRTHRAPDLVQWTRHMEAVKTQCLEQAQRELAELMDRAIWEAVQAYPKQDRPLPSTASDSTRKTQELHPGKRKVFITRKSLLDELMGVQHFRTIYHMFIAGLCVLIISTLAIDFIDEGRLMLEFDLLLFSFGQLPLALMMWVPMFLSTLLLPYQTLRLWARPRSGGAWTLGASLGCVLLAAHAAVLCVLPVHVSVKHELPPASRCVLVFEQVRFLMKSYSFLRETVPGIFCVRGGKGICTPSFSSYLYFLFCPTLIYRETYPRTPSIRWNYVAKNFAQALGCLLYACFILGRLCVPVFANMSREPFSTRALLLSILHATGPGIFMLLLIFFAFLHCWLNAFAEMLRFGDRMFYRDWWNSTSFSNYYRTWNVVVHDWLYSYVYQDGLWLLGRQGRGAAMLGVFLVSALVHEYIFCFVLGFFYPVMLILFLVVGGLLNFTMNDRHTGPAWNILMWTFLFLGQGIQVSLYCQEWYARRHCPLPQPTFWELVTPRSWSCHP
Experiment: Inhibition of Acyl-CoA:Cholesterol Acyltransferase (ACAT) in hepatic microsomes
Format: biochemical, Sprague Dawley rat
Settings: rat hepatic microsomes, 14C-oleoyl-CoA, 37° C., pH 7.4; read-out: In Vitro ACAT IC50
measured-attribute: pIC50
Note: pIC50 values are expressed as the negative base-10 logarithm of concentration in M.

molecule | test-system | pIC50
CN(C(=O)c1ccc([N+](=O)[O-])cc1)C1N(C)C(c2ccc(F)cc2)=NC1(C(F)(F)F)C(F)(F)F (stereo not drawn) | Acyl-CoA: Cholesterol Acyltransferase (ACAT) (Rattus norvegicus, UniProt Q7TQM4) | 5.10

Item CCCCOc1ccc(C(=O)N(C)C2N(C)C(c3ccc(F)cc3)=NC2(C(F)(F)F)C(F)(F)F)cc1 (stereo not drawn) : provide pIC50 5.70

---

Target: Acyl-CoA: Cholesterol Acyltransferase (ACAT) (Rattus norvegicus)
Construct: centrifuged at 105,000×g for 1 hour to pellet the microsomes; from tissue; host or cells: liver microsomes of fasted male Sprague Dawley rats
Test: Inhibition of Acyl-CoA:Cholesterol Acyltransferase (ACAT) in hepatic microsomes
Format: biochemical, Sprague Dawley rat
measured-attribute: IC50
Put your answer as a value accompanied by its unit after it.

molecule-smiles | test-system | value-observed
Cc1ccc(OC(=O)N=C2N(C)C(c3ccc(C)cc3)=NC2(C(F)(F)F)C(F)(F)F)cc1 | Acyl-CoA: Cholesterol Acyltransferase (ACAT) (Rattus norvegicus) | 49 µM

Hello, please tell me recorded IC50 for this one: COc1ccc(OC(=O)N=C2N(C)C(c3ccc(OC)cc3)=NC2(C(F)(F)F)C(F)(F)F)cc1 64 µM

---

Readings of pIC50 for the listed compounds
Target: Acyl-CoA: Cholesterol Acyltransferase (ACAT) (Rattus norvegicus, UniProt Q7TQM4)
Construct: centrifuged at 105,000×g for 1 hour to pellet the microsomes; from tissue; host or cells: liver microsomes of fasted male Sprague Dawley rats
Assay: Inhibition of Acyl-CoA:Cholesterol Acyltransferase (ACAT) in hepatic microsomes
Assay type: biochemical, Sprague Dawley rat
Conditions: rat hepatic microsomes, 14C-oleoyl-CoA, 37° C., pH 7.4; read-out: In Vitro ACAT IC50
Counter-ions that a name gives are not always drawn.
pIC50 is a log-scale quantity: -log10 of the concentration expressed in molar.

Consider the reported pIC50 for these compounds:
compound | test-system | measured-attribute | value-observed
CN(C(=O)c1ccc(F)cc1)C1N(C)C(c2ccc(C#N)cc2)=NC1(C(F)(F)F)C(F)(F)F (stereo not shown) [Example Q] | Acyl-CoA: Cholesterol Acyltransferase (ACAT) (Rattus norvegicus, UniProt Q7TQM4) | pIC50 | 5.72
CC(C)c1ccc(NC(=O)N(C)C2N(C)C(c3ccc(F)cc3)=NC2(C(F)(F)F)C(F)(F)F)cc1 (stereo not shown) [Example 27] | Acyl-CoA: Cholesterol Acyltransferase (ACAT) (Rattus norvegicus, UniProt Q7TQM4) | pIC50 | 5.52
CCCCCCCCNC(=O)N(C)C1N(C)C(c2ccc(F)cc2)=NC1(C(F)(F)F)C(F)(F)F (stereo not shown) [Example 29, hydrochloride] | Acyl-CoA: Cholesterol Acyltransferase (ACAT) (Rattus norvegicus, UniProt Q7TQM4) | pIC50 | 4.80

// moving on: another record for pIC50
Indicate its recorded pIC50; the compound in question is CCCCCCC(=O)N(C)C1N(C)C(c2ccc(N3CCCCC3)cc2)=NC1(C(F)(F)F)C(F)(F)F (stereo not shown) [Example 33, hydrochloride] 5.00
